Recorded IC90 by entry
target: Farnesyl Transferase (FT) (Homo sapiens, UniProt P49354+P49356); assay: Biochemical assay for inhibition of farnesyl transferase (FT)
Just the number please, in nM, no unit attached.

Field request: IC90 | item: Cn1cncc1CN1CC(N(CC(=O)OC(C)(C)C)S(=O)(=O)c2ccccn2)Cc2cc(C#N)ccc21 (stereo not shown) 9

----------
target: Farnesyl Transferase (FT) (Homo sapiens, UniProt P49354+P49356); assay: Biochemical assay for inhibition of farnesyl transferase (FT)
quantity.kind: IC90
Remember to follow the number with its unit.

compound: CCCS(=O)(=O)N1Cc2cc(C#N)ccc2N(Cc2cnc[nH]2)C[C@H]1Cc1ccccc1 [Compound 7H]
val: 360 nM

compound: COc1ccc(S(=O)(=O)N2Cc3cc(C#N)ccc3N(Cc3cncn3C)C[C@H]2Cc2ccccc2)cc1 [Compound 7I]
val: 11 nM

Field request: IC90 | item: C=C(C)CN(C1Cc2cc(C#N)ccc2N(Cc2cncn2C)C1)S(=O)(=O)N1CC=CC1 (stereo not drawn) [Compound 7O] 8 nM
